assayed.system: human GlyT1c (Homo sapiens (Human))
Sequence (P48067 whole entry): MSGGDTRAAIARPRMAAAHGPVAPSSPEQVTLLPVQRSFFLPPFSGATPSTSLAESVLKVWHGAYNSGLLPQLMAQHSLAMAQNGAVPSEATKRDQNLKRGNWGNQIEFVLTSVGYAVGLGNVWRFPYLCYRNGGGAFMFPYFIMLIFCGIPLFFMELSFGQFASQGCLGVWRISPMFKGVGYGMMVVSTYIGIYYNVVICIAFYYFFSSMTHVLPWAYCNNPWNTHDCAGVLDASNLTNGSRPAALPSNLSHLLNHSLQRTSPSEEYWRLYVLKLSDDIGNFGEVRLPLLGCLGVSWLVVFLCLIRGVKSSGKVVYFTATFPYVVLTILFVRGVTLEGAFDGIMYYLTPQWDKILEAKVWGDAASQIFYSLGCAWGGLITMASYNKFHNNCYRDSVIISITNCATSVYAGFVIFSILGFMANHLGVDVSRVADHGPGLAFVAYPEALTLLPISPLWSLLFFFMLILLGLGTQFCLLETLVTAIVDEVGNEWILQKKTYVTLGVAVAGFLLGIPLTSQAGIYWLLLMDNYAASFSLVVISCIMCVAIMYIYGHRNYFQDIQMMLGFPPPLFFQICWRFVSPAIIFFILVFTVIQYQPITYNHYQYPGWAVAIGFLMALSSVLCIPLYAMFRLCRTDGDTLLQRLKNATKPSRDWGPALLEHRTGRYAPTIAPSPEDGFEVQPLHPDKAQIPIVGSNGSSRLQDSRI
assay.procedure: [3H]-Glycine uptake into recombinant CHO cells expressing human GlyT1
Type: cell-based
condition.context: hGlyT1c_5_CHO cells, 200 nM [3H]-glycine
pIC50: −log10 of the molar value. Counter-ions that a name gives are not always drawn.

compound	assayed.system	pIC50
CCCS(=O)(=O)N(C)CCOc1ccc2c(c1)C(Cc1cccc(Cl)c1)C(N)CC2 (stereo not shown) [Example 79, hydrochloride]	human GlyT1c (Homo sapiens (Human))	≥ 6.00
Cn1cnc(S(=O)(=O)NCCOc2ccc3c(c2)C(Cc2ccc(Cl)c(Cl)c2)C(NC=O)CC3)c1 (stereo not shown)	human GlyT1c (Homo sapiens (Human))	≥ 7.00
Cn1cc(S(=O)(=O)NCCOc2ccc3c(c2)C(Cc2ccc(Cl)cc2)C(N)CC3)cn1 (stereo not shown) [Example 28, hydrochloride]	human GlyT1c (Homo sapiens (Human))	≥ 8.00
N#Cc1ccc2c(c1)C(Cc1ccc(Cl)c(Cl)c1)C(N)CC2 (stereo not shown) [Example 29, trifluoroacetate]	human GlyT1c (Homo sapiens (Human))	≥ 4.00
CCCS(=O)(=O)N1CC(Oc2ccc3c(c2)C(Cc2cccc(Cl)c2)C(N)CC3)C1 (stereo not shown) [Example 83, hydrochloride]	human GlyT1c (Homo sapiens (Human))	≥ 5.00
Cc1nc(C)c(S(=O)(=O)NCCOc2ccc3c(c2)C(Cc2cccc(Cl)c2)C(N)CC3)s1 (stereo not shown)	human GlyT1c (Homo sapiens (Human))	≥ 5.00
CC(C)(C)OC(=O)NC1CCc2ccc(C#N)cc2C1Cc1ccc(Cl)c(Cl)c1 (stereo not shown)	human GlyT1c (Homo sapiens (Human))	≥ 3.00
CCCS(=O)(=O)N(C)CCOc1ccc2c(c1)C(Cc1ccc(Cl)cc1)C(N)CC2 (stereo not shown) [Example 77, hydrochloride]	human GlyT1c (Homo sapiens (Human))	≥ 6.00
CCNC1CCc2ccc(OCCNS(=O)(=O)c3cn(C)cn3)cc2C1Cc1ccc(Cl)c(Cl)c1 (stereo not shown)	human GlyT1c (Homo sapiens (Human))	≥ 4.00
CCOC(=O)NC1CCc2ccc(C#N)cc2C1Cc1ccc(Cl)c(Cl)c1 (stereo not shown)	human GlyT1c (Homo sapiens (Human))	≥ 4.00
CCOC(=O)NC1CCc2ccc(OCCNS(=O)(=O)c3cnc(C)[nH]3)cc2C1Cc1cccc(Cl)c1 (stereo not shown)	human GlyT1c (Homo sapiens (Human))	≥ 5.00
O=C(NC1CCc2ccc(O)cc2C1Cc1ccc(Cl)cc1)OCc1ccccc1 (stereo not shown)	human GlyT1c (Homo sapiens (Human))	≥ 4.00
CCOC(=O)NC1CCc2ccc(OCCNS(=O)(=O)c3cnn(C)c3)cc2C1Cc1cccc(Cl)c1 (stereo not shown)	human GlyT1c (Homo sapiens (Human))	≥ 6.00
CCCS(=O)(=O)NCCOc1ccc2c(c1)C(Cc1ccc(Cl)cc1Cl)C(N)CC2 (stereo not shown) [Example 75, hydrochloride]	human GlyT1c (Homo sapiens (Human))	≥ 5.00
CCOC(=O)NC1CCc2ccc(OCCNS(=O)(=O)c3ccc(C)s3)cc2C1Cc1cccc(Cl)c1 (stereo not shown)	human GlyT1c (Homo sapiens (Human))	≥ 3.00
CCOC(=O)NC1CCc2ccc(OCCNS(=O)(=O)c3cccs3)cc2C1Cc1ccc(Cl)cc1Cl (stereo not shown)	human GlyT1c (Homo sapiens (Human))	≤ 4.00

Data provenance is patent US9067871B2.
